Each entry below lists one item and its recorded cytotoxicity at 70.5 h value.
# METHOD_DESCRIPTION: Human HepG2 cell viability assay in 384 well format
# Assay type: toxicity, cell-based
# Set-up: dose 125 nL, time 70.5 hour; concentration not given beside the values
# CONDITION_SUMMARY: HepG2 cells, read-out: Inhibition

COMPOUND: CCc1nccn1C1CCCN(C(=O)c2ccc3c(c2)nnn3C)C1 (stereo unspecified)
OUTPUT_UNIT: %
cytotoxicity at 70.5 h: -5.62

COMPOUND: O=C(Cc1cnc(-n2cccc2)s1)NCCCO
OUTPUT_UNIT: %
cytotoxicity at 70.5 h: -25

COMPOUND: COc1cccc(COCC(=O)N2CCCCCC2)c1
OUTPUT_UNIT: %
cytotoxicity at 70.5 h: 17.5

COMPOUND: O=C(c1ccnnc1)N1CC[C@H](OCC2CC2)[C@@H]1Cc1ccncc1
OUTPUT_UNIT: %
cytotoxicity at 70.5 h: -1.15

COMPOUND: CCN(CC)c1nc(O)cc(C(C)n2ncc3ccccc3c2=O)n1 (stereo unspecified)
OUTPUT_UNIT: %
cytotoxicity at 70.5 h: -4.03

COMPOUND: COCc1nc(CNc2cc(C)nc(N3CCCCC3)n2)no1
OUTPUT_UNIT: %
cytotoxicity at 70.5 h: -7.86

* * *

# METHOD_DESCRIPTION: Human HepG2 cell viability assay in 384 well format
# Assay type: toxicity, cell-based
# Design: dose 125 nL, time 70.5 hour; concentration not given beside the values
# CONDITION_SUMMARY: HepG2 cells, read-out: Inhibition
Each entry below lists one item and its recorded cytotoxicity at 70.5 h value.

MOLECULE: Cn1cc(C(=O)Nc2ccc3c(c2)N(C(=O)c2ccco2)CC3)nn1
OUTPUT_UNIT: %
cytotoxicity at 70.5 h: 0.738
--
MOLECULE: Cc1cccc(CS(=O)(=O)CC(=O)NCCCOC(C)C)c1
OUTPUT_UNIT: %
cytotoxicity at 70.5 h: 16.8
--
MOLECULE: Cc1nc(C)n(CC2CN(CC(=O)Nc3ccncc3)CCO2)n1 (stereo unspecified)
OUTPUT_UNIT: %
cytotoxicity at 70.5 h: -5.56
--
MOLECULE: CS(=O)(=O)NCCCN1CCCC1Cc1ccccc1 (stereo unspecified)
OUTPUT_UNIT: %
cytotoxicity at 70.5 h: 4.23
--
MOLECULE: N#Cc1ccc(N2CCC(c3nccn3Cc3cscn3)CC2)nc1
OUTPUT_UNIT: %
cytotoxicity at 70.5 h: -0.885
--
MOLECULE: Fc1ccc(-c2noc([C@@H]3Cc4nc[nH]c4CN3)n2)cc1
OUTPUT_UNIT: %
cytotoxicity at 70.5 h: -11.7

* * *

# METHOD_DESCRIPTION: Human HepG2 cell viability assay in 384 well format
# Format: toxicity, cell-based
# Design: dose 125 nL, time 70.5 hour; concentration not given beside the values
# CONDITION_SUMMARY: HepG2 cells, read-out: Inhibition
PROPERTY_NAME: cytotoxicity at 70.5 h (%)

COMPOUND: COc1ccc(-c2nc(C3(NC(=O)OC(C)(C)C)CCC3)no2)cn1
PROPERTY_NAME: cytotoxicity at 70.5 h
OUTPUT_UNIT: %
OBSERVED_MEASUREMENT: -3.79
--
COMPOUND: COCCN1CCC(NC(=O)Cn2cc(C)c3ccccc32)CC1
PROPERTY_NAME: cytotoxicity at 70.5 h
OUTPUT_UNIT: %
OBSERVED_MEASUREMENT: 12.3
--
COMPOUND: O=S(=O)(CCO)CCc1ccccc1Cl
PROPERTY_NAME: cytotoxicity at 70.5 h
OUTPUT_UNIT: %
OBSERVED_MEASUREMENT: -9.35
--
COMPOUND: COc1cc(NC2CCCNC2)cc(OC)c1 (stereo unspecified)
PROPERTY_NAME: cytotoxicity at 70.5 h
OUTPUT_UNIT: %
OBSERVED_MEASUREMENT: 17.7
--
COMPOUND: O=C1CCCN1CC1CN(CC2CCOCC2)Cc2nccn2C1 (stereo unspecified)
PROPERTY_NAME: cytotoxicity at 70.5 h
OUTPUT_UNIT: %
OBSERVED_MEASUREMENT: -2.55
--
COMPOUND: O=C(NS(=O)(=O)c1cccc(C(F)(F)F)c1)c1cscn1
PROPERTY_NAME: cytotoxicity at 70.5 h
OUTPUT_UNIT: %
OBSERVED_MEASUREMENT: -10.3
